# Tested on: Vero E6 infected with SARS-CoV-2
# procedureDetails: inhibition of SARS-CoV-2 cytopathic effect; higher = more antiviral protection, active = above 15
# assayConditions: 833.33 nM; 48 h
quantity: inhibition of SARS-CoV-2 cytopathic effect (%)

{"compound": "CN1CCC2=C(C1)C(c1ccccc1)c1ccccc12 (stereo not drawn)", "displayUnit": "%", "numericReadout": 2.57}
{"compound": "CCCCCCCCCCC(=O)O[C@H]1CC[C@H]2[C@@H]3CCC4=CC(=O)CC[C@]4(C)[C@H]3CC[C@]12C [Testosterone (undecanoate)]", "displayUnit": "%", "numericReadout": 0.31}
{"compound": "COc1ccc(C2CC(c3ccccc3)=NN2c2ccc(S(N)(=O)=O)cc2)cc1 (stereo not drawn)", "displayUnit": "%", "numericReadout": -2.57}
{"compound": "O=P(O)(O)CN(CCN(CP(=O)(O)O)CP(=O)(O)O)CP(=O)(O)O", "displayUnit": "%", "numericReadout": 2.43}
{"compound": "CC(C)=CCC/C(C)=C/CNCCNC1C2CC3CC(C2)CC1C3 (stereo not drawn)", "displayUnit": "%", "numericReadout": 1.05}
{"compound": "CC[C@H]1CN2CCc3cc(OC)c(OC)cc3[C@@H]2C[C@@H]1C[C@H]1NCCc2cc(OC)c(OC)cc21", "displayUnit": "%", "numericReadout": 11.6}
{"compound": "COc1cc2cc(c1Cl)N(C)C(=O)C[C@H](OC(=O)C(C)C)[C@]1(C)O[C@@H]1[C@H](C)[C@@H]1C[C@@](O)(NC(=O)O1)[C@H](OC)/C=C/C=C(\\C)C2", "displayUnit": "%", "numericReadout": -0.53}
{"compound": "CN(Cc1cc(Br)cc(Br)c1N)C1CCCCC1", "displayUnit": "%", "numericReadout": 3.11}
{"compound": "CCOC(=O)[C@@](C)(N)Cc1ccc(O)c(O)c1 [methyldopate]", "displayUnit": "%", "numericReadout": 1.46}
{"compound": "N=C(N)NCCCC[C@@H]1NC(=O)CCSSC[C@@H](C(N)=O)NC(=O)[C@@H]2CCCN2C(=O)[C@H](Cc2c[nH]c3ccccc23)NC(=O)[C@H](CC(=O)O)NC(=O)CNC1=O [eptifibatide]", "displayUnit": "%", "numericReadout": 2.75}
{"compound": "O=C1CCc2cc(OCCCCc3nnnn3C3CCCCC3)ccc2N1", "displayUnit": "%", "numericReadout": -0.77}
{"compound": "COc1ccc(F)c(F)c1C(=O)c1cnc(NC2CCN(S(C)(=O)=O)CC2)nc1N", "displayUnit": "%", "numericReadout": 6.41}
{"compound": "Cc1cn([C@H]2C=C[C@@H](CO)O2)c(=O)[nH]c1=O", "displayUnit": "%", "numericReadout": 2.52}
{"compound": "C[C@@H]1C[C@@H]([C@H](O)CC2CC(=O)NC(=O)C2)C(=O)[C@@H](C)C1 [cycloheximide]", "displayUnit": "%", "numericReadout": 27.6}
{"compound": "O=C(O)CNC(=O)C1C(=O)N(C2CCCCC2)C(=O)N(C2CCCCC2)C1=O", "displayUnit": "%", "numericReadout": 2.38}
{"compound": "CCNCc1cc(C(C)(C)C)c(O)c(C(C)(C)C)c1", "displayUnit": "%", "numericReadout": 0.46}
{"compound": "CC(C)NCCN(C(C)C)S(=O)(=O)c1ccc(Cl)cc1Cl", "displayUnit": "%", "numericReadout": -2.09}
{"compound": "O=C(/C=C/c1ccc(CN(CCO)CCc2c[nH]c3ccccc23)cc1)NO", "displayUnit": "%", "numericReadout": -21.1}

src = the supplement of paper PMC13380429
